# assay comment: inhibitors of TNFa-induced NFkB p65 translocation, primary screen, imaging, HUVEC, MLSMR starter and 10KST1 sets (AID 438);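 further: compound added about 3h40 before a 20 min TNFalpha stimulation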
# experimental parameters: HUVEC TNFa-induced p65 nuclear translocation; measured here: nuclei count (cytotoxicity indicator), at 2.08 µM
endpoint name: cell count
Hey, just send me the number, nothing else.

- compound: "CCCC(=O)N1CCc2[nH]c3ccccc3c2C1"
  endpoint name: "cell count"
  assay result: 502

Sample COCCCNC(=O)c1ccccc1NS(=O)(=O)c1ccc(C)cc1 ; cell count observed: 369

Sample COc1cc(OC)c(NC(=O)c2ccco2)cc1Cl ; cell count observed: 363

Sample CCN(c1ccc2c(c1)OCO2)S(=O)(=O)c1cc(Br)cc2c1N(C(=O)C1CC1)CC2 ; cell count observed: 341

Sample CCn1cc(C2=NCC(C)O2)c2ccccc21 (centres undefined) ; cell count observed: 487

Sample CCCCN(C(=O)CCC(=O)O)C1CC(=O)N(c2ccc(OCCC)cc2)C1=O (centres undefined) ; cell count observed: 639

Sample CC(=O)c1c(C)[nH]c(C(=O)Nc2c(C)n(C)n(-c3ccccc3)c2=O)c1C ; cell count observed: 418

Sample N#Cc1c(NCCN)nc(NCc2ccccc2)c2c1CCN(Cc1ccccc1)C2 ; cell count observed: 566

====

# assay comment: inhibitors of TNFa-induced NFkB p65 translocation, primary screen, imaging, HUVEC, MLSMR starter and 10KST1 sets (AID 438);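 further: compound added about 3h40 before a 20 min TNFalpha stimulation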
# experimental parameters: HUVEC TNFa-induced p65 nuclear translocation; measured here: nuclei count (cytotoxicity indicator), at 2.08 µM
We begin with a simple list: items and their reported cell count.

- compound: "O=C(C1CCN(c2nnnn2-c2ccccc2)CC1)N1CCN(c2ccccc2)CC1"
  cell count: 618
- compound: "CCOc1ccc(-c2nnc(SCC(=O)N3CCN(c4ccccc4)CC3)o2)cc1"
  cell count: 672

Sample C/C(N)=C(/C#N)C(=O)COC(=O)CCSc1ccccc1 ; cell count observed: 422

Sample CCOC(=O)N1CCN(C(=O)c2ccc3c(SCC(=O)O)c4c(nc3c2)CCCC4)CC1 ; cell count observed: 819

Sample O=C(CCN1C(=O)COc2ccccc21)N1CCN(c2ccccn2)CC1 ; cell count observed: 690

Sample COCCCn1c2nc3ccccc3nc2c2c(=O)n(-c3ccccc3OC)c(C)nc21 ; cell count observed: 671

Sample CCC(C)Nc1nc2c(c(=O)n(C)c(=O)n2C)n1Cc1ccc(F)cc1 (stereo unspecified) ; cell count observed: 436

Sample O=C1c2cccnc2C(=O)N1c1cccc(-c2nc3ccccc3o2)c1 ; cell count observed: 339

Sample O=C(CCCc1cccs1)Nc1nc2c(s1)CCCC2 ; cell count observed: 613

Sample CCCCc1nccn1CCn1ccnc1CCCC ; cell count observed: 514

Sample O=C(Oc1cc2oc(=O)c3c(c2cc1Cl)CCCC3)c1ccco1 ; cell count observed: 532

====

# assay comment: inhibitors of Sendai virus-induced IRF3 signaling, primary screen, TLR/RLR signaling modifier project, cell-based, Sendai virus stimulus, luciferase, 10K MLSCN set (AID 602276);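 further: firefly luciferase from ISG56 promoter only with Renilla not read in this screen; 0% = Sendai virus plus DMSO and 100% = medium plus DMSO without virus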
# experimental parameters: HEK293 RL24 IRF3 luciferase reporter, at 10 µM, stronger effect = higher value
Give yes (1) when the value for inhibition is at least 10%. Give no (0) when it is less.

Solved cases (4 shown):
- smiles record: "O=C(CCCc1cccs1)Nc1nc2c(s1)CCCC2"
  assigned class: "no (0)"
- smiles record: "Cc1ccccc1-n1c(Cn2c(=O)sc3ccccc32)nnc1SCC(=O)N1CCCC1"
  assigned class: "yes (1)"
- smiles record: "CCOc1cc(C2C3=C(CCCC3=O)N(C)C3=C2C(=O)CCC3)cc(Cl)c1O"
  assigned class: "no (0)"
- smiles record: "CCOC(=O)c1c(C)[nH]c(C(=O)Cn2c(=O)c3c(ncn3CC)n(Cc3ccccc3)c2=O)c1C"
  assigned class: "yes (1)"

### Prompt Reported inhibition at or above 10%? O=C(CN(c1ccc(F)cc1)S(=O)(=O)c1ccc2c(c1)OCCO2)Nc1ccc2c(c1)OCO2
### Response yes (1)

### Prompt Reported inhibition at or above 10%? Cc1nnc(SCC(=O)Nc2nccs2)s1
### Response no (0)

====

# assay comment: inhibitors of E-selectin induction by TNFa, primary screen, imaging, HUVEC, immunofluorescence, MLSMR starter and 10KST1 sets (AID 487);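 further: signal is fraction of cell area covered by stained E-selectin grains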
# experimental parameters: HUVEC TNFalpha-induced E-selectin immunofluorescence imaging, at 2 µM; stronger effect = higher value
Give yes (1) when the value for inhibition is at least -20%. Give no (0) when it is less.

Solved cases (5 shown):
- molecule: "Cc1c(C(=O)NCc2ccccn2)sc2nc(-c3ccc(F)cc3)cn12"
  assigned class: "yes (1)"
- molecule: "CCOC(=O)CSc1nc(N)c(C(=O)Nc2ccc(N(C)C)cc2)s1"
  assigned class: "no (0)"
- molecule: "O=C(Cn1cc2c(n1)CCCCC2)N1CCc2ccccc21"
  assigned class: "no (0)"
- molecule: "Cc1ccc(-c2nc(CS(=O)CC(=O)NCCN(CC(C)C)CC(C)C)c(C)o2)cc1 (stereo unspecified)"
  assigned class: "yes (1)"
- molecule: "Cc1nnc(NC(=O)CSc2cn(CCNC(=O)c3ccccc3)c3ccccc23)s1"
  assigned class: "yes (1)"

Could you now consider this next molecule?
### Prompt Reported inhibition at or above -20%? CCOC(=O)c1ccc(NC(=O)CCc2nc(-c3cccc(C)c3)no2)cc1
### Response yes (1)

====

We begin with a simple list: items and their reported inhibition.
# assay comment: inhibitors of TNFa-induced NFkB p65 translocation, primary screen, imaging, HUVEC, MLSMR starter and 10KST1 sets (AID 438);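 further: compound added about 3h40 before a 20 min TNFalpha stimulation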;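 on inhibition: signal is the nuclear over cytoplasmic p65 intensity ratio per well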
# experimental parameters: HUVEC TNFa-induced p65 nuclear translocation; at 2 µM, stronger effect = higher value, 0% TNFa-plus-vehicle, 100% no-TNFa wells
Write down the numeric answer in % and omit the unit.

These recorded examples may help you get a feel for the data.
- molecule: "COc1ccccc1-n1c(C)nnc1SCC(=O)Nc1cccc(C(C)=O)c1"
  endpoint name: "inhibition"
  assay result: 4.3
- molecule: "COCCN(C(=O)CCC(=O)Nc1ccccn1)C(C(=O)NC1CCCC1)c1ccc(OC)cc1 (stereo not drawn)"
  endpoint name: "inhibition"
  assay result: -26.5
- molecule: "c1ccc(CSc2nnc(-c3cccs3)n2Cc2ccco2)cc1"
  endpoint name: "inhibition"
  assay result: -13.3
- molecule: "Cc1ccccc1-n1c(=O)c2ccccc2n2nnnc12"
  endpoint name: "inhibition"
  assay result: -6.4
- molecule: "Cc1cc(C)nc(Sc2ccc3nnc(C(F)(F)C(F)(F)C(F)(F)F)n3n2)n1"
  endpoint name: "inhibition"
  assay result: -21.1

Sample N#Cc1nc(COc2ccc(Br)cc2)oc1NCCN1CCOCC1 ; inhibition observed: -5.5

Sample CCCCC(=O)NCCc1cc2ccc(OC)cc2[nH]c1=O ; inhibition observed: -17

Sample CCCOc1cccc(C(=O)N(Cc2ccco2)C2CCS(=O)(=O)C2)c1 (stereo not drawn) ; inhibition observed: 1.7

Sample CSc1nncc(=O)[nH]1 ; inhibition observed: 1.5

Sample COC(=O)c1ccc(C2/C(=C(/O)c3ccc(OC)cc3)C(=O)C(=O)N2Cc2ccco2)cc1 (stereo not drawn) ; inhibition observed: -5.8

Sample Cn1c(=O)c2c(nc(N3CCC(C(N)=O)CC3)n2CCSc2nc3ccccc3s2)n(C)c1=O ; inhibition observed: -10.1

Sample O=C(CCNS(=O)(=O)c1cccc2nsnc12)NCc1cccs1 ; inhibition observed: -21

Sample COCCN(C(=O)c1csnn1)C(C(=O)NC(C)(C)C)c1cccc(OC)c1 (stereo not drawn) ; inhibition observed: -1.7

====

# assay comment: inhibitors of mutant huntingtin aggregation, primary screen, imaging, exon1htt(103Q)mCFP cells, high-content imaging (AID 483);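 further: compound exposure lasted 3 days before fixation; percent of the per-plate median nuclei count of sample wells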
# experimental parameters: exon1htt(103Q)mCFP cell line, aggregate imaging, at 2 µM; measured here: cell count, toxicity
endpoint name: nuclei count (%)
Write down the numeric answer in % and omit the unit.

Sample O=C(NCc1ccco1)c1cccn2c(=O)c3sccc3nc12 ; nuclei count observed: 96

====

# study target: Dual specificity protein phosphatase 6 (Homo sapiens)
# assay comment: DUSP6 inhibitors restoring Erk phosphorylation by chemical complementation, primary imaging in DUSP6-transfected HeLa (AID 609);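 further: phospho-Erk level distribution per well compared with pooled transfected vehicle control wells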
# experimental parameters: HeLa MKP-3 transfected, phospho-Erk imaging KS statistic; at 10 µM; stronger effect = higher value; cells stimulated with TPA for 15 min
We begin with a simple list: items and their reported inhibition.
Write down the numeric answer in % and omit the unit.

These recorded examples may help you get a feel for the data.
- compound: "CC(=O)NCC(=O)OCN1C(=O)c2ccccc2C1=O"
  assay result: 15.9
- compound: "Cc1nc(SCC(=O)Nc2ccc3c(c2)OCO3)c(C#N)c2c1CCCC2"
  assay result: 9.37
- compound: "CCOC(=O)C1CCN(c2nc3ccccc3nc2C(C#N)C(=O)OC(C)COC)CC1 (configuration not stated)"
  assay result: -5.81

// assay Dual specificity protein phosphatase 6 (Homo sapiens), entry CCOC(=O)C1CCN(c2ncnc3c2cnn3-c2ccc(Cl)cc2)CC1 , inhibition value = 27.4

// assay Dual specificity protein phosphatase 6 (Homo sapiens), entry Cc1cccc(-c2nnc3n2N=C(c2ccc(Br)cc2)CS3)c1 , inhibition value = -2.91

// assay Dual specificity protein phosphatase 6 (Homo sapiens), entry C/C(=N\O)C(=O)NCCCn1ccnc1 , inhibition value = -0.233

// assay Dual specificity protein phosphatase 6 (Homo sapiens), entry Cn1c(OCc2cccnc2)nc2c1c(=O)n(Cc1ccc(Br)cc1)c(=O)n2C , inhibition value = -5.95

// assay Dual specificity protein phosphatase 6 (Homo sapiens), entry COCCCNC(=O)c1c(N)n(/N=C/c2ccccn2)c2nc3ccccc3nc12 , inhibition value = -1.12
